Tested on: A549
PROTOCOL_DESCRIPTION: Antiproliferative activity against human A549 cells after 48 hrs by MTT assay
Format: functional, cell-based
EXPERIMENTAL_CONDITIONS: A549, 48 h
pIC50: −log10 of the molar value.
Entries and their measured pIC50 follow.

Would you please look over these solved cases?
[Q] Record request: pIC50 value, item O=C(Cn1cc(-c2ccccc2)nn1)c1ccc(Br)cc1
[A] < 3.52

[Q] May I ask what pIC50 has been recorded for COc1cc2c(c(OC)c1OC)-c1ccc(OC)c(=O)cc1[C@@H](NC(C)=O)CC2 [COLCHICINE] ?
[A] > 6.00

[Q] Which pIC50 value belongs to CCCCCc1ccc(-c2cn(CC(=O)c3ccccc3)nn2)cc1 ?
[A] < 3.52

[Q] Reported pIC50, compound O=C(Cn1cc(-c2ccccn2)nn1)c1ccccc1 : ____
[A] < 3.52

[Q] Record request: pIC50 value, item O=C(Cn1cc(CO)nn1)c1ccccc1
[A] < 3.52

[Q] Look up pIC50 for this compound: COc1ccc(C(=O)Cn2cc(-c3ccccc3)nn2)cc1
[A] < 3.52

Further cases:
[Q] Name the reported pIC50 value associated with the compound CCC(C(=O)c1ccccc1)n1cc(-c2ccccc2)nn1 (configuration not stated)
[A] 4.59

[Q] What value of pIC50 has been recorded for this entry: O=C(Cn1cc(-c2ccccc2)nn1)c1ccccc1
[A] < 3.52

[Q] Requested read-out: pIC50. Entry: CC(C(=O)c1ccccc1)n1cc(-c2ccccc2)nn1 (configuration not stated)
[A] < 3.52

[Q] Look up pIC50: CCCCCCc1cn(CC(=O)c2ccccc2)nn1
[A] < 3.52

[Q] For the compound shown here, O=C(Cn1cc(-c2ccsc2)nn1)c1ccccc1 , give the reported pIC50.
[A] 3.59

[Q] Item under review: COc1ccc(-c2cn(CC(=O)c3ccccc3)nn2)cc1 . Reported pIC50?
[A] 3.73
